IC50 listing for selected compounds.
target: RORγ ligand binding domain (LBD) (Homo sapiens); construct: made in house; host or cells: E. coli BL-21 (BL3), vector pDEST15; test: TR-FRET Activity Assay (ligand sensing, RORγ-LBD / coactivator peptide interaction, LANCE); format: biochemical; details: first value of the cell FRET/FF/REN; TR-FRET activity assay; read-out: pIC50 (FRET) (converted)
Sequence (P51449 269-508 limits assumed): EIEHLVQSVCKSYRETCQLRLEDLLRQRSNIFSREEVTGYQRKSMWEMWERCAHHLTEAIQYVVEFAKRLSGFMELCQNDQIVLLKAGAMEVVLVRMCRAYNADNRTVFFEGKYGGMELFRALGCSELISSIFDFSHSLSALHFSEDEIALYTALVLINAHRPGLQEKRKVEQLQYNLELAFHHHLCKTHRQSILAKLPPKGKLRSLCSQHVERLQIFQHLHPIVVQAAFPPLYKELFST

Here is how some compounds turned out for IC50.
Cc1c(C(=O)NC2COC2)cc(-c2ccc(C(=O)NCC(C)(C)C)c(C(C)(C)C)c2)n1CC1CCCCC1 [1/32]: 1580 nM
Cc1c(C(=O)NCCC(C)(C)C(N)=O)cc(-c2ccc(S(=O)(=O)NC(C)(C)C)c(C(F)(F)F)c2)n1CC1CCCCC1 [17/135]: 631 nM
Cc1c(C(=O)NC2CCOCC2)cc(C2=NN(C(=O)NC(C)(C)C)C3(CCCCC3)C2)n1CC1CCCCC1 [Example 24]: 3160 nM
Cc1c(C(=O)NC2CCOCC2)cc(-c2cc(F)c(NS(=O)(=O)C(C)(C)C)c(C(F)(F)F)c2)n1CC1CCCCC1 [17/248]: 2510 nM
Cc1c(C(=O)N[C@H]2C[C@H](C(=O)O)C2)cc(-c2cc(OC(F)(F)F)cc(C3(C)CC3)c2)n1CC1CCCCC1 [17/350]: 1000 nM
Cc1c(C(=O)NCC(C)(C)C(N)=O)cc(-c2ccc(S(=O)(=O)NC(C)(C)C)c(C(F)F)c2)n1CC1CCCCC1 [17/128]: 200 nM
Cc1c(C(=O)NCCCO)cc(-c2cc(C(C)(C)C)cc(C(C)(C)C)c2)n1CC1CCCCC1 [1/65]: 398 nM
CNS(=O)(=O)c1ccc(-c2cc(C(=O)NC3CCOCC3)c(C)n2CC2CCCCC2)cc1C(F)(F)F [17/110]: 2000 nM
Cc1c(C(=O)NCC(C)(C)O)cc(-c2cc(C(=O)NC(C)(C)C)nc(C3(C)CC3)n2)n1CC1CCCCC1 [17/373]: 5010 nM
Cc1c(C(=O)NCC(C)(C)c2noc(=O)[nH]2)cc(-c2cc(C(C)(C)C)cc(C3(C)CC3)c2)n1CC1CCCCC1 [17/162]: 794 nM

What value of measured IC50 is listed for Cc1c(C(=O)N2CCC(C)(O)CC2)cc(-c2cc(C(C)(C)C)cc(C(C)(C)C)c2)n1CC1CCCCC1 [1/37] ? 316 nM

What value of measured IC50 is listed for CCC(C)(C)NS(=O)(=O)c1ccc(-c2cc(C(=O)NC3COC3)c(C)n2CC2CCCCC2)cc1C(C)(C)C [9/7] ? 501 nM

What value of measured IC50 is listed for CNC(=O)C(C)(C)CNC(=O)c1cc(-c2cc(C(C)(C)C)c3c(c2)C2(CCO3)CC2)n(CC2CCCCC2)c1C [Example 11/1] ? 251 nM

What value of measured IC50 is listed for Cc1c(C(=O)NC2CCOCC2)cc(-c2ccc(S(=O)(=O)NC(C)(C)C)c(Br)c2)n1CC1CCCCC1 [17/157] ? 398 nM

###

target: RORγ (UniProt P51449); test: RORγ Gal4 Reporter Gene Assay in 293T cells (firefly and renilla luciferase); type: cell-based, human; conditions: second value of the cell; Gal4 reporter gene assay in 293T cells, firefly luciferase
readout-kind: pIC50 (FF)
When you answer, write just the number.

Cc1c(C(=O)N(C)C2CCOCC2)cc(-c2ccc(S(=O)(=O)NC(C)(C)C)c(C(C)(C)C)c2)n1CC1CCCCC1: 7.8

What value of measured pIC50 (FF) is listed for Cc1c(C(=O)NCC2(C)COC2)cc(-c2cc(C(C)(C)C)cc(C3(C)CC3)c2)n1CC1CCCCC1 ? 7.6

What value of measured pIC50 (FF) is listed for Cc1c(C(=O)NCC(F)(F)F)cc(-c2cc(C(C)(C)C)c(O)c(C(C)(C)C)c2)n1CC1CCCCC1 ? 6.4
